All values here come from ChEMBL document CHEMBL1212778.

Tested on: Escherichia coli
assay-name: Inhibition of curli protein biogenesis in uropathogenic Escherichia coli UTI89 at 60 to 250 uM after 48 hrs by electron microscopy
Type: functional, organism-based
Activity calls are given as the source filed them. The calls are words filed in the database; no cut-off is given here.
Assign a class; possible classes are active, inactive

// return assay outcome for "O=C(O)[C@@H]1CSc2c(-c3ccc(F)c(F)c3)c(Cc3ccc4ccccc4c3)cc(=O)n21" active

# iterate: "O=C(O)[C@@H]1CSc2c(-c3cccc(C(F)(F)F)c3)c(Cc3cccc4ccccc34)cc(=O)n21" active

# iterate: "O=C(O)[C@@H]1CSc2c(-c3ccc(Br)cc3)c(Cc3cccc4ccccc34)cc(=O)n21" active

# iterate: "O=C(O)[C@@H]1CSc2c(C3CC3)c(Cc3cccc4ccccc34)cc(=O)n21" inactive
